- method_description: Membrane permeability at pH 6.8 by PAMPA
- Assay type: ADME
- condition_details: read-out: permeability
measured_endpoint: Papp (×10⁻⁶ cm/s)

O=C1CC2(CCN(C(=O)c3cc(-c4ccccc4)nc(-c4ccccc4)c3)CC2)Oc2ccc(N3CCCC3=O)cc21 ... 26.8

* * *

- method_description: Inhibition of acetyl-CoA carboxylase in rat skeletal muscle by HPLC
- Format: tissue-based, Muscle tissue
measured_endpoint: IC50

CC1COCC(C)N1c1ccc2c(c1)OC1(CCN(C(=O)c3cc(-c4ccccc4)nc(-c4ccccc4)c3)CC1)CC2=O (stereo unspecified) ... 59 nM
O=C1CC2(CCN(C(=O)c3cc(-c4ccccc4)nc(-c4ccccc4)c3)CC2)Oc2ccc(N3CCOCC3)cc21 ... 6 nM
O=C1CC2(CCN(C(=O)c3cc(-c4ccccc4)nc(-c4ccccc4)c3)CC2)Oc2ccccc21 ... 1200 nM
O=C1CC2(CCN(C(=O)c3cc(-c4ccccc4)nc(-c4ccccc4)c3)CC2)Oc2cc(N3CCOCC3)ccc21 ... 26 nM
CN1CCN(c2ccc3c(c2)OC2(CCN(C(=O)c4cc(-c5ccccc5)nc(-c5ccccc5)c4)CC2)CC3=O)CC1 ... 27 nM
CC(=O)N[C@H](C)C#Cc1ccc2c(c1)C(=O)CC1(CCN(C(=O)c3cc(-c4ccccc4)nc(-c4ccccc4)c3)CC1)O2 ... 61 nM
CCCC(=O)Nc1ccc2c(c1)C(=O)CC1(CCN(C(=O)c3cc(-c4ccccc4)nc(-c4ccccc4)c3)CC1)O2 ... 6 nM
O=C1CC2(CCN(C(=O)c3cc(-c4ccccc4)nc(-c4ccccc4)c3)CC2)Oc2ccc(N3CCCC3=O)cc21 ... 14 nM
O=C1CC2(CCN(C(=O)c3cc(-c4ccccc4)nc(-c4ccccc4)c3)CC2)Oc2cc(N3CCCCC3)ccc21 ... 36 nM
O=C1CC2(CCN(C(=O)c3cc(-c4ccccc4)nc(-c4ccccc4)c3)CC2)Oc2cc(N3CCCC3)ccc21 ... 61 nM
Cc1cc2c(cc1N1CCOCC1)C(=O)CC1(CCN(C(=O)c3cc(-c4ccccc4)nc(-c4ccccc4)c3)CC1)O2 ... 2 nM

* * *

- Organism: Rattus norvegicus
- method_description: Inhibition of acetyl-CoA carboxylase in rat skeletal muscle by HPLC at 10 uM
- Type: tissue-based
- condition_details: Muscle tissue
measured_endpoint: inhibition

CC1COCC(C)N1c1ccc2c(c1)OC1(CCN(C(=O)c3cc(-c4ccccc4)nc(-c4ccccc4)c3)CC1)CC2=O (centres undefined) ... > 90%
O=C1CC2(CCN(C(=O)c3cc(-c4ccccc4)nc(-c4ccccc4)c3)CC2)Oc2ccc(N3CCOCC3)cc21 ... > 90%
CN1CCN(c2ccc3c(c2)OC2(CCN(C(=O)c4cc(-c5ccccc5)nc(-c5ccccc5)c4)CC2)CC3=O)CC1 ... > 90%
O=C1CC2(CCN(C(=O)N3c4ccccc4Sc4ccccc43)CC2)Oc2ccccc21 ... 16%

* * *

- Species on record: Rattus norvegicus
- method_description: Inhibition of acetyl-CoA carboxylase in rat skeletal muscle by HPLC at 10 uM
- Assay type: tissue-based
- condition_details: Muscle tissue
Recorded inhibition, one value per entry.
measured_endpoint: inhibition

O=C1CC2(CCN(C(=O)c3cc(-c4ccccc4)nc(-c4ccccc4)c3)CC2)Oc2ccc(N3CCCC3=O)cc21 ... > 90%
O=C1CC2(CCN(C(=O)c3cc(-c4ccccc4)nc(-c4ccccc4)c3)CC2)Oc2ccccc21 ... > 90%
CC1(C)C(=O)c2ccccc2OC12CCN(C(=O)c1cc(-c3ccccc3)nc(-c3ccccc3)c1)CC2 ... 44%
CCCC(=O)N(C)c1ccc2c(c1)C(=O)C(C)(C)C1(CCN(C(=O)c3cc(-c4ccccc4)nc(-c4ccccc4)c3)CC1)O2 ... 83%
Cc1cc2c(cc1N1CCOCC1)C(=O)CC1(CCN(C(=O)c3cc(-c4ccccc4)nc(-c4ccccc4)c3)CC1)O2 ... > 90%
CCCC(=O)Nc1ccc2c(c1)C(=O)CC1(CCN(C(=O)N3c4ccccc4CCc4ccccc43)CC1)O2 ... 4%
O=C1CC2(CCN(C(=O)c3cc(-c4ccccc4)nc(-c4ccccc4)c3)CC2)Oc2cc(N3CCOCC3)ccc21 ... > 90%
O=C(c1c2ccccc2cc2ccccc12)N1CCC(N2CCC[C@@H](C(=O)N3CCOCC3)C2)CC1 ... > 90%

* * *

- Organism: Rattus norvegicus
- method_description: Inhibition of acetyl-CoA carboxylase in rat skeletal muscle by HPLC at 10 uM
- Type: tissue-based
- condition_details: Muscle tissue
Entries and their inhibition values follow.
measured_endpoint: inhibition

O=C1CC2(CCN(C(=O)N3c4ccccc4Sc4ccccc43)CC2)Oc2ccc(N3CCOCC3)cc21 ... 64%
O=C1CC2(CCN(C(=O)c3cc(-c4ccccc4)nc(-c4ccccc4)c3)CC2)Oc2cc(N3CCCCC3)ccc21 ... > 90%
CCCC(=O)Nc1ccc2c(c1)C(=O)CC1(CCN(C(=O)N3c4ccccc4Sc4ccccc43)CC1)O2 ... 48%
CCCC(=O)Nc1ccc2c(c1)C(=O)CC1(CCN(C(=O)c3cc(-c4ccccc4)nc(-c4ccccc4)c3)CC1)O2 ... > 90%

FYI, the data here is from ChEMBL document CHEMBL1143266.
